# TARGET_OR_TEST_SYSTEM: human recombinant adrenergic α2A receptor (Homo sapiens, UniProt P08913)
# Construct: expressed in transfected cells; host or cells: insect Sf9 cells
# Sequence (P08913 whole entry): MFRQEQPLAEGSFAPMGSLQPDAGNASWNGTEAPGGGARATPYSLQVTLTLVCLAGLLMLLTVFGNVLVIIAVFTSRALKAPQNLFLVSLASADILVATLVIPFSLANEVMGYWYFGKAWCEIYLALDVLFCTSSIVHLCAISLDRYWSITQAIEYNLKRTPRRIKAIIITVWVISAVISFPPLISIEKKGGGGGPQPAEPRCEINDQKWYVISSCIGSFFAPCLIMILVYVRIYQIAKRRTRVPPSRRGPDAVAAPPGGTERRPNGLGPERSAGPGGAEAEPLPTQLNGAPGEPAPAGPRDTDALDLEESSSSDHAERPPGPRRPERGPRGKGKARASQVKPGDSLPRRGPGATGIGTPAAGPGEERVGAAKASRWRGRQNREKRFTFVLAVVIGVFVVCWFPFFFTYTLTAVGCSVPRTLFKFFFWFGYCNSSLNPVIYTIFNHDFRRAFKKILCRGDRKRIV
# PROTOCOL_SUMMARY: Radioligand binding, adrenergic α2A ([3H]MK-912)
# CONDITION_CONTEXT: compound at 0.1 μM; [3H]MK-912; repeat assays, each datapoint shown; 0.1 µM
Cut-off 20% on Percentage inhibition of ligand binding, Adrenergic α2A, inclusive. At or above means Yes; below means No.

# COMPOUND, CLASS
records = [
    ("COc1ccc(C(O)Cn2c3c(c4cc(C)ccc42)CN(C)CC3)cn1 (single isomer, unassigned) [51b]", "Yes"),
    ("Cc1ccc2c(c1)c1c(n2CC(O)c2ccncc2)CC2CCCCN2C1 (racemic) [75c]", "No"),
    ("COc1cccc2c3c(n(CC(O)c4ccncc4)c12)CCN(C)C3 (centres unmarked) [compound 44]", "No"),
    ("CN1CCc2c(c3cccc(Cl)c3n2CC(C)(O)c2cccnc2)C1 (single isomer, unassigned) [57b]", "Yes"),
    ("Cc1ccc2c(c1)c1c(n2CC(O)c2ccncc2)CC2CCCCN2C1 (racemic) [75b]", "No"),
    ("CN1Cc2c(n(CC(O)c3ccncc3)c3ncccc23)C(C)(C)C1 (centres unmarked) [compound 17]", "No"),
    ("CN1CCc2c(c3cccc(Cl)c3n2CC(O)c2ccncc2)C1 (single isomer, unassigned) [45a]", "No"),
    ("CN1CCc2c(c3cccc(Br)c3n2CC(O)c2ccncc2)C1 (single isomer, unassigned) [48b]", "No"),
]

###

Below, each entry is listed with its recorded inhibition at 0.1 µM.
# TARGET_OR_TEST_SYSTEM: human recombinant adrenergic α2B receptor (Homo sapiens)
# Construct: expressed in transfected cells; host or cells: CHO-K1
# Sequence (P18089 whole entry): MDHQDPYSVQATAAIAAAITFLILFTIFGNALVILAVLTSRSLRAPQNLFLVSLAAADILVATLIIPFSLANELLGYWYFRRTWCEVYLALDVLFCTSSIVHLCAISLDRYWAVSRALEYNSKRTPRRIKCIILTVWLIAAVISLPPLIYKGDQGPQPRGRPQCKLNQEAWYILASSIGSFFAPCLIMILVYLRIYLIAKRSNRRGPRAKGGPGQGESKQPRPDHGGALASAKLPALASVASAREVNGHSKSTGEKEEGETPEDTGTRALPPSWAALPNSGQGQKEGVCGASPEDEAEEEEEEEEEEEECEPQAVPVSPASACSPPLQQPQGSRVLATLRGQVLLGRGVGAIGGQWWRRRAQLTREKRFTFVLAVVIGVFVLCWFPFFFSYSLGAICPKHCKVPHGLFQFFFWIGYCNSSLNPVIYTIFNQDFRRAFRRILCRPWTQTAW
# PROTOCOL_SUMMARY: Radioligand binding, adrenergic α2B ([3H]Rauwolscine)
# CONDITION_CONTEXT: 0.1 μM compound; read-out: Percentage inhibition of ligand binding, Adrenergic α2B
ATTRIBUTE_MEASURED: inhibition at 0.1 µM (%)

# COMPOUND, ATTRIBUTE_MEASURED, DISPLAY_UNIT, NUMERIC_READOUT
measured = [
    ("C=CCC1(C)CN(C)Cc2c1n(/C=C(\\C)c1ccc(F)cc1)c1ccc(C)cc21 (centres unmarked)", "inhibition at 0.1 µM", "%", 27),
    ("COc1ccc(/C(C)=C/n2c3c(c4cc(Cl)ccc42)CCN(C)CC3)cc1", "inhibition at 0.1 µM", "%", 101),
    ("C/C(=C\\n1c2c(c3cc(C)cc(C)c31)CN(C)CC2)c1ccncc1", "inhibition at 0.1 µM", "%", 93),
    ("Cc1ccc2c(c1)c1c(n2C2=C(c3cccnc3)CCC2)CCN(C)C1", "inhibition at 0.1 µM", "%", 86),
    ("Cc1ccc2c(c1)c1c(n2CC(O)(c2ccccc2)c2ccccc2)CCN(C)C1", "inhibition at 0.1 µM", "%", 54),
    ("Cc1ccc2c(c1)c1c(n2C#Cc2ccc(S(N)(=O)=O)cc2)CCN(C)C1", "inhibition at 0.1 µM", "%", 99),
    ("C/C(=C\\n1c2c(c3cc(C)ccc31)CN(C)CC2)c1cncc2ccccc12", "inhibition at 0.1 µM", "%", 104),
    ("C/C(=C/n1c2c(c3cc(C)ccc31)CN(C)CC2)c1cc(C)cs1", "inhibition at 0.1 µM", "%", 105),
]

###

# TARGET_OR_TEST_SYSTEM: human recombinant adrenergic α2A receptor (Homo sapiens)
# Construct: expressed in transfected cells; host or cells: insect Sf9 cells
# PROTOCOL_SUMMARY: Radioligand binding, adrenergic α2A ([3H]MK-912)
# CONDITION_CONTEXT: 0.1 μM compound; read-out: Percentage inhibition of ligand binding, Adrenergic α2A
# Description: To evaluate in radioligand binding assays the activity of compounds of the invention, human recombinant adrenergic α2A receptor expressed in insect Sf9 cells (Uhlen, S. et al, J. Pharmacol. Exp. Ther. 271:1558, 1994) in a modified Tris-HCl buffer (50 mM Tris-HCl, pH 7.4, 12.5 mM MgCl2, 2 mM EDTA) was used. […] Receptor proteins were filtered and washed, the filters were then counted to determine [^3H]MK-912 specifically bound. […]
Decision: inhibition at 0.1 µM >= 40% yields true (1), all other cases yield false (0).

# MOLECULE, CLASS
rows = [
    ("C/C(=C\\n1c2c(c3cc(C)cc(C)c31)CN(C)CC2)c1ccncc1 [compound 312]", "true (1)"),
    ("CN1CCc2c(c3cccnc3n2CCc2ccc(C(F)(F)F)nc2)C1 [II-103]", "false (0)"),
    ("Cc1ccc2c(c1)c1c(n2/C=C/c2cnc3ccccc3c2)CCN(C)C1 [compound 323]", "true (1)"),
    ("CC1c2c(c3cc(Cl)ccc3n2CC(O)c2ccncc2)CCN1C (stereo not drawn) [II-72]", "false (0)"),
    ("C/C(=C/n1c2c(c3cc(C)ccc31)CN(C)CC2)c1ccc(C)s1 [compound 277]", "true (1)"),
    ("Cc1ccc(C(C)(O)Cn2c3c(c4cc(Cl)ccc42)CN(C)CC3)cc1 (stereo not drawn) [II-56]", "false (0)"),
    ("CC(O)(Cn1c2c(c3cc(Cl)ccc31)CNCC2)c1ccncc1 (stereo not drawn) [II-62]", "false (0)"),
    ("C/C=C(/c1ccccc1)n1c2c(c3cc(C)ccc31)CN(C)CC2 [compound 262]", "true (1)"),
]

###

# TARGET_OR_TEST_SYSTEM: rat adrenergic α1B receptor (Rattus norvegicus, UniProt P15823)
# Construct: rat adrenergic α1B receptor obtained from Wistar Rat liver; from tissue; host or cells: Wistar rat liver
# Sequence (P15823 1-515): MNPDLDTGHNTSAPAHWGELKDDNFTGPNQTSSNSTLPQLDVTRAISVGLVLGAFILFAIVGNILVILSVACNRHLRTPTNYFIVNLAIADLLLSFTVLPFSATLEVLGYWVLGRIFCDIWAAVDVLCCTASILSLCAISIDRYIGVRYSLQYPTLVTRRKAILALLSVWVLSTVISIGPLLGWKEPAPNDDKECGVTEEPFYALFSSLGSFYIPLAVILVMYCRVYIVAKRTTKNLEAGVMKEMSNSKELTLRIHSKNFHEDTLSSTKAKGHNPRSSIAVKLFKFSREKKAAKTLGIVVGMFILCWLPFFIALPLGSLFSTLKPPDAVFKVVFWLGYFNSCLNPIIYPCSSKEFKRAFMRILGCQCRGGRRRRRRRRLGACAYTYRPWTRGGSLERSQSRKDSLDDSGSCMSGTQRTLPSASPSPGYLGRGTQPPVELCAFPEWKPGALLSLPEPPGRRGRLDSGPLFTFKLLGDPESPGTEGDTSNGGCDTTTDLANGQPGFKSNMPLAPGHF
# PROTOCOL_SUMMARY: Radioligand binding, adrenergic α1B ([3H]Prazosin)
# CONDITION_CONTEXT: 0.1 μM compound; read-out: Percentage inhibition of ligand binding, Adrenergic α1B
# reported inhibition at 0.1 µM; entries follow

# COMPOUND, DISPLAY_UNIT, inhibition at 0.1 µM
data = [
    ("Cc1ccc2c(c1)c1c(n2C2=C(c3ccc(C)nc3)CCC2)CCN(C)C1", "%", 13),
    ("C/C(=C\\n1c2c(c3cc(C)ccc31)CN(C)CC2)c1ccc2c(ccn2C)c1", "%", 63),
    ("Cc1ccc2c(c1)c1c(n2CC(O)c2ccncc2)CN2CCC1C2 (centres unmarked)", "%", 45),
    ("C=CCN1CCc2c(c3cc(C)ccc3n2CC(O)c2ccncc2)C1 (centres unmarked)", "%", 55),
    ("C/C(=C/n1c2c(c3cc(C)ccc31)CN(C)CC2)c1cccc2ccccc12", "%", 26),
]

###

# TARGET_OR_TEST_SYSTEM: human recombinant adrenergic α2A receptor (Homo sapiens)
# Construct: expressed in transfected cells; host or cells: insect Sf9 cells
# PROTOCOL_SUMMARY: Radioligand binding, adrenergic α2A ([3H]MK-912)
# CONDITION_CONTEXT: 0.1 μM compound; read-out: Percentage inhibition of ligand binding, Adrenergic α2A
Tick Condition met if inhibition at 0.1 µM is 70% or greater. Tick Condition not met if inhibition at 0.1 µM is less than 70%.

# MOLECULE, CLASS
measured = [
    ("Cc1cc2c3c(n(CC(C)(O)c4cccnc4)c2cn1)CCN1CCCC31 (stereo not drawn)", "Condition not met"),
    ("C/C(=C/n1c2c(c3cc(C)ccc31)CN(C)CC2)c1sccc1C", "Condition met"),
    ("C/C(=C/n1c2c(c3cc(C)ccc31)CN(C)CC2)c1ccnn1C", "Condition not met"),
    ("Cc1ccc2c(c1)c1c(n2C#Cc2ccc(S(N)(=O)=O)s2)CCN(C)C1", "Condition not met"),
    ("Cc1ccc(CCn2c3c(c4c(C)ccc(C)c42)CN(C)CC3)cn1", "Condition not met"),
    ("Cc1ccc(CCn2c3c(c4c(Cl)ccc(Cl)c42)CN(C)CC3)cn1", "Condition met"),
    ("OC(Cn1c2c(c3ccccc31)C1CCC(C2)N1)c1ccncc1 (stereo not drawn)", "Condition not met"),
    ("Cc1ccc2c(c1)c1c(n2C2=C(c3cccc4ccccc34)CCC2)CCN(C)C1", "Condition met"),
    ("C/C(=C/n1c2c(c3cc(C)ccc31)CN(C)CC2)c1ccc2ccn(C)c2c1", "Condition met"),
]

The reported measurements were obtained from patent US8791132B2.
